# subject_of_test: T1, recombinant human AXL extracellular domain, C-terminally His8-tagged (rhAXL-ECD) (human, UniProt P30530 26-451)
# T1 construct: Made in CHO cells; also called (rh)AXL-ECD His8; human AXL ECD
# T1 sequence: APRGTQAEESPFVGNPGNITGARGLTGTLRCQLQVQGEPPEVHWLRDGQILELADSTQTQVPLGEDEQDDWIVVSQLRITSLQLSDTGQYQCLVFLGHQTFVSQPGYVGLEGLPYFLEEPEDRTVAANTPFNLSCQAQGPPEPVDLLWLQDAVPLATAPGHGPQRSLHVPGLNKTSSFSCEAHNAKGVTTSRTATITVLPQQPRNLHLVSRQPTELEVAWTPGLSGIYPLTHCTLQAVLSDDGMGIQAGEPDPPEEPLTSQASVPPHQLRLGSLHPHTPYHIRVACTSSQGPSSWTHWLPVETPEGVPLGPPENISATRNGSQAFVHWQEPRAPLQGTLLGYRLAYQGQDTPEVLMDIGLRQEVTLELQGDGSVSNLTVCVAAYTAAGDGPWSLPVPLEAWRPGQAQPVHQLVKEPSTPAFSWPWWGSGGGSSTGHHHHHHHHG
# measurement_description: SPR, VHH-Fc captured, AXL ECD flowed, single-concentration kinetics (estimate)
pKd: −log10 of the molar value.
measurement_type: pKd

[[record]]
binder = "NRC-sdAb005-Fc (VHH-human IgG1 Fc fusion) (Fc fusion, VHH fused N-terminally to human IgG1 Fc; also called NRC-sdAb005-hIgG1; not shown: human IgG1 Fc) QVKLEESGGGLAQAGGSLRLSCAASGSISSINTIGWFRQAPGKQRELVAASDSGANRNYADSVKGRFTISRDNAKNTVYLQMNNLKPEDTAIYYCRAWGTGTISTMYWGQGTQVTVSS"
measured_number = 7.47

[[record]]
binder = "NRC-sdAb006-Fc (VHH-human IgG1 Fc fusion) (Fc fusion, VHH fused N-terminally to human IgG1 Fc; also called NRC-sdAb006-hIgG1; not shown: human IgG1 Fc) QVKLEESGGGLVQAGASLRLSCVASESIFGFNTMGWYRQAPGNERELVASISNSKRTMYADSVKGRFTISRDNAKNTVNLQMNNLKPEDTAVYYCRAWGIITSATVYWGQGTQVTVSS"
measured_number = 7.62

[[record]]
binder = "NRC-sdAb008-Fc (VHH-human IgG1 Fc fusion) (Fc fusion, VHH fused N-terminally to human IgG1 Fc; also called NRC-sdAb008-hIgG1; not shown: human IgG1 Fc) QVKLEESGGGLVQAGGSLRLSCAASGSSGMINTMGWYRQAPGKQRELVARRSTGGTTNYADSVKGRFTISRDDANNTVYLQMNSLKPEDTAVYYCAIIWRTSDLTGRFNTWGQGTQVTVSS"
measured_number = 8.70

[[record]]
binder = "NRC-sdAb001-Fc (VHH-human IgG1 Fc fusion) (Fc fusion, VHH fused N-terminally to human IgG1 Fc, made in HEK293 cells; also called NRC-sdAb0001-Fc; NRC-sdAb001-hIgG1; not shown: human IgG1 Fc) QVKLEESGGGLVQAGGSLRLSCTASASISSFDIMGWYRQAPGKQRELVAAITTLDIANYRDSVKGRFTISRDNAKNTVYLQMDSLKPEDTARYHCAAFQSDQNYWGQGTQVTVSS"
measured_number = 8.22

